- Test description: recombinant UMI read abundance after kanamycin selection (control-corrected) (log10(CPM+1)); higher = more efficient recombination; extreme values may be limits of the assay; sequences stand for … in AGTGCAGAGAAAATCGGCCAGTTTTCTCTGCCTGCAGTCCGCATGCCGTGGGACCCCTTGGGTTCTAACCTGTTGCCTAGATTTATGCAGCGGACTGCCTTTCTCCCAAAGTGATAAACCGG…AGGTTGGTTTCACT; site = the 11-nt donor;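 further: IS621 bridge recombinase in Escherichia coli cells against a fixed T5 target plasmid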
Hi, to clarify the labels: YES covers recombinant UMI read abundance (log10) from 0.04 upward, NO covers anything below 0.04.

entry_sequence="TAGGGGACATGGACCGGTTTTCCCGGTAATCCGTATTTGAA (site TAGGGGACTTT)" discrete_label=YES
entry_sequence="ACATCTACATGGACCGGTTTTCCCGGTAATCCGTATTTGTT (site ACATCTACTTA)" discrete_label=NO
entry_sequence="TAAAGCCCATGGACCGGTTTTCCCGGTAATCCGTATTTGTA (site TAAAGGCCTTA)" discrete_label=NO
entry_sequence="GCCTAGCCATGGACCGGTTTTCCCGGTAATCCGTATTTGTG (site GCCTAGCCTCA)" discrete_label=YES
entry_sequence="ACGCGAACATGGACCGGTTTTCCCGGTAATCCGTATTTGTC (site ACTCGAACTGA)" discrete_label=NO
